assay: reduction of polyQ htt aggregates in cells – imaging, exon1htt(103Q)mCFP cells, high-content imaging, primary screen (AID 483); conditions: exon1htt(103Q)mCFP cell line, aggregate imaging, at 2 µM; active compounds read high;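 note: compound exposure lasted 3 days before fixation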
This listing pairs compounds with measured inhibition of aggregation.
observation type: inhibition of aggregation (%)

1) COc1ccc(OC)c(-c2nnc(SCC(=O)NC3CCCCC3)o2)c1    13.9
2) O=C(CSc1nnc(Cc2cccs2)n1Cc1ccco1)Nc1cccc(Cl)c1    -13.8
3) Cc1noc(/C=C/N(C)C)c1S(=O)(=O)N1CCc2ccccc21    24.9
4) CC(=O)N(CCN(C(C)=O)c1ccccc1)c1ccccc1    4
5) O=S(=O)(c1cc(Cl)ccc1Br)N1CCOCC1    -0.6
